Target: Urease (Canavalia ensiformis, UniProt P07374)
Sequence (P07374 whole entry): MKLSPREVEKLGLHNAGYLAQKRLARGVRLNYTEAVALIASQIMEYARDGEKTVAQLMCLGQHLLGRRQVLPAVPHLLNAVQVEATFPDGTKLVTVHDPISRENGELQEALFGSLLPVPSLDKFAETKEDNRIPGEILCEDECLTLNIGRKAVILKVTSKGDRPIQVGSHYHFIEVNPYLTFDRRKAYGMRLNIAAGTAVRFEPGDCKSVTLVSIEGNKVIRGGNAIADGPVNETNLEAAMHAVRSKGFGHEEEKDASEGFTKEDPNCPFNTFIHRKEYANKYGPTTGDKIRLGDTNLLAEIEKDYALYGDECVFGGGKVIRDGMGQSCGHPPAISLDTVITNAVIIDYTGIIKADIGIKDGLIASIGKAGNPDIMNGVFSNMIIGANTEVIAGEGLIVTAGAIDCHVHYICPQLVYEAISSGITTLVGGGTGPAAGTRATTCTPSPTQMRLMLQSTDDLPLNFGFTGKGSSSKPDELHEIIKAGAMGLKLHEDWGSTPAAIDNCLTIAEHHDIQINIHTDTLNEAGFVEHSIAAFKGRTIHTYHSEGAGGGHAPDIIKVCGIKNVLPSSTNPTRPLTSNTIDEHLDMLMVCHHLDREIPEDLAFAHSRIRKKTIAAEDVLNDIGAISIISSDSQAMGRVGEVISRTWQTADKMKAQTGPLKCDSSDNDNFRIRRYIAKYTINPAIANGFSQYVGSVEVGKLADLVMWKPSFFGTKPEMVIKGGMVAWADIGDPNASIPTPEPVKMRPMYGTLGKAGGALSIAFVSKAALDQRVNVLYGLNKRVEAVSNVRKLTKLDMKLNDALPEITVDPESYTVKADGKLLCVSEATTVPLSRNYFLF
Assay: Inhibition of jack bean urease using urea as substrate assessed as ammonia production after 15 mins by indophenol method
Settings: read-out: IC50
VALUE_TYPE: IC50
Don't forget the unit after the number, please.

Q: So what IC50 did S=C(Nc1ccc(Cl)cc1)Nc1cccc(Cl)c1 get with Urease (Canavalia ensiformis, UniProt P07374)?
Result: 20.3 µM

Q: Consider next the compound S=C(Nc1cccnc1)Nc1cccc(Cl)c1 in the same way.
Result: 24.5 µM

Q: Again, but for Cc1ccc(NC(=S)Nc2cccc(Cl)c2)cc1
Result: 18.6 µM

Q: Another: Fc1ccc(NC(=S)Nc2ccccc2)c(F)c1
Result: 24.3 µM

Q: Try the compound COc1ccc(NC(=S)Nc2cccc(Cl)c2)cc1
Result: 29.6 µM

Q: Cool, now Cc1ccc(NC(=S)Nc2cccc(Cl)c2)c(C)c1
Result: 24.1 µM

Q: Next record, please: S=C(Nc1cccc(Cl)c1)Nc1cccc(Cl)c1Cl
Result: 27.1 µM
